- System: FAMPAC
- EXPERIMENT: cells
- Design: ATPlite luminescence viability of PDAC cell lines, 11-dose single-agent curves, 4-parameter fit
- ASSAY_CONDITIONS: 72 h, read-out: EC50 [nM]
MEASUREMENT_LABEL: EC50

Some entries whose results are on file:
- COMPOUND: "CNC(=O)c1ccc(Nc2ncc(C(F)(F)F)c(NCc3nccnc3N(C)S(C)(=O)=O)n2)cc1"
  SYSTEM: "FAMPAC"
  EC50: "> 10000 nM"
- COMPOUND: "Nc1cc(C(F)(F)F)c(-c2cc(N3CCOCC3)nc(N3CCOCC3)n2)cn1"
  SYSTEM: "FAMPAC"
  EC50: "752 nM"
- COMPOUND: "COc1cc2nccc(Oc3ccc(NC(=O)Nc4cc(C)on4)c(Cl)c3)c2cc1OC"
  SYSTEM: "FAMPAC"
  EC50: "> 10000 nM"
- COMPOUND: "C=CC(=O)Nc1cccc(Nc2nc(Nc3ccc(N4CCN(C(C)=O)CC4)cc3OC)ncc2C(F)(F)F)c1"
  SYSTEM: "FAMPAC"
  EC50: "3580 nM"
- COMPOUND: "C=CCn1c(=O)c2cnc(Nc3ccc(N4CCN(C)CC4)cc3)nc2n1-c1cccc(C(C)(C)O)n1"
  SYSTEM: "FAMPAC"
  EC50: "268 nM"

Provide EC50 value for the following compound: Cn1cnc2c(F)c(Nc3ccc(Br)cc3Cl)c(C(=O)NOCCO)cc21
8370 nM

Provide EC50 value for the following compound: O=C(/C=C\n1cnc(-c2cc(C(F)(F)F)cc(C(F)(F)F)c2)n1)NNc1cnccn1 [Selinexor]
97 nM
